# Tested on: Du-145
# experimental_details: MTT viability test, Du-145 prostate cancer cells
# Format: cell-based
# test_context: read-out: IC50 Du-145, peptide 0-200 μg/mL during 2 h, mean ± SE n = 3
Where no end group is shown, it is not given here.
reported_metric: IC50 (µM)
Record the value in µM, omitting the unit from your answer.

[in] Which value of IC50 has been reported for RWQWRWQWR-NH2 [[Pal]] in the records?
[out] 40

----------
# experimental_details: MTT cytotoxicity, HEK-293 control cells
# Type: cell-based
# test_context: Caco-2
Where no end group is shown, it is not given here.
reported_metric: selectivity ratio
Reply with just the number.

[in] I would be grateful if you could share the reported selectivity ratio for RWQWRWQWR-NH2 [[Pal]] .
[out] 0.8

----------
# experimental_details: MTT cytotoxicity, Vero control cells
# Type: cell-based
# test_context: Caco-2
Where no end group is shown, it is not given here.
reported_metric: selectivity ratio
When you answer, write just the number.

[in] Suppose we examine the substance RWQWRWQWR-NH2 [[Pal]] ; what selectivity ratio value has been reported?
[out] 0.2

----------
Entries and their selectivity ratio
# experimental_details: MTT cytotoxicity, HEK-293 control cells
# Format: cell-based
# test_context: Caco-2
Where a SMILES comes first, the peptide text is derived from it. [ ]: non-standard residue; d: D form. Orn = NCCC[C@H](N)C(=O)O; Ahx = NCCCCCC(=O)O
Keep it simple and answer with nothing but the number.

{"molecule": "N=C(N)NCCC[C@H](NC(=O)[C@H](Cc1c[nH]c2ccccc12)NC(=O)[C@H](CCC(N)=O)NC(=O)[C@H](Cc1c[nH]c2ccccc12)NC(=O)[C@H](CCCNC(=N)N)NC(=O)[C@H](Cc1c[nH]c2ccccc12)NC(=O)[C@H](CCC(N)=O)NC(=O)[C@H](Cc1c[nH]c2ccccc12)NC(=O)[C@H](CCCNC(=N)N)NC(=O)CCCCCN)C(N)=O [Ahx-[Pal]] (H-[Ahx]RWQWRWQWR-NH2)", "observed_value": 2.2}

[in] // lookup selectivity ratio for N=C(N)NCCC[C@H](NC(=O)[C@H](Cc1c[nH]c2ccccc12)NC(=O)[C@H](CCC(N)=O)NC(=O)[C@H](Cc1c[nH]c2ccccc12)NC(=O)[C@@H](N)CCCNC(=N)N)C(=O)N[C@@H](Cc1c[nH]c2ccccc12)C(=O)N[C@@H](CCC(N)=O)C(=O)N[C@@H](Cc1c[nH]c2ccccc12)C(=O)N[C@@H](CCCN)C(N)=O [^9[Orn] [Pal]] (H-RWQWRWQW[Orn]-NH2)
[out] 1.3

----------
# experimental_details: Hemolytic activity
# Type: cell-based, human
# test_context: Caco-2
Where no end group is shown, it is not given here.
reported_metric: selectivity ratio
# respond with the number and nothing more

[in] Which selectivity ratio reading was recorded for the substance RWQWRWQWR-NH2 [[Pal]] ?
[out] 1.6

----------
# experimental_details: MTT cytotoxicity, Vero control cells
# Type: cell-based
# test_context: Caco-2
Where a SMILES comes first, the peptide text is derived from it. [ ]: non-standard residue; d: D form. Orn = NCCC[C@H](N)C(=O)O; Ahx = NCCCCCC(=O)O
// reported selectivity ratio for each item listed
I only need the number, thanks.

{"compound": "N=C(N)NCCC[C@H](NC(=O)[C@H](Cc1c[nH]c2ccccc12)NC(=O)[C@H](CCC(N)=O)NC(=O)[C@H](Cc1c[nH]c2ccccc12)NC(=O)[C@H](CCCNC(=N)N)NC(=O)[C@H](Cc1c[nH]c2ccccc12)NC(=O)[C@H](CCC(N)=O)NC(=O)[C@H](Cc1c[nH]c2ccccc12)NC(=O)[C@H](CCCNC(=N)N)NC(=O)CCCCCN)C(N)=O [Ahx-[Pal]] (H-[Ahx]RWQWRWQWR-NH2)", "selectivity ratio": 1}

[in] What value of selectivity ratio has been recorded for this entry: N=C(N)NCCC[C@H](NC(=O)[C@H](Cc1c[nH]c2ccccc12)NC(=O)[C@H](CCC(N)=O)NC(=O)[C@H](Cc1c[nH]c2ccccc12)NC(=O)[C@@H](N)CCCNC(=N)N)C(=O)N[C@@H](Cc1c[nH]c2ccccc12)C(=O)N[C@@H](CCC(N)=O)C(=O)N[C@@H](Cc1c[nH]c2ccccc12)C(=O)N[C@@H](CCCN)C(N)=O [^9[Orn] [Pal]] (H-RWQWRWQW[Orn]-NH2)
[out] 1.2

The measurements presented in this section are drawn from paper PMC10586019.
